Test system: sarcoma SJSA-1 tumor model
testSettings: 45 mg/kg once a week for three weeks; Table 2
Description: Test objective: To investigate the antitumor efficacy of the above compounds in an animal tumor model of sarcoma SJSA-1. Test drug: Polypeptide conjugate, Irinotecan, Belotecan and normal saline control group. Test animals: 6-8 weeks old BALB/c mice, all female. SJSA-1 cells were purchased from ATCC and cultured in a DMEM medium containing 10% fetal bovine serum at 37° C. in 5% CO2. Passaging was performed every three days, and cells within 15 generations were used. […]
Where a SMILES comes first, the peptide text is derived from it. The star is where a group is joined. NEt(2-(20S-CPT-7-yl)ethyl) = CCN(CCc1c2c(nc3ccccc13)-c1cc3c(c(=O)n1C2)COC(=O)[C@]3(O)CC)*; X1 = CC[C@@]1(O)C(=O)OCc2c1cc1n(c2=O)Cc2c-1nc1ccccc1c2CCN(C1CCC1)*; Propanoyl(3-maleimido) = O=C1C=CC(=O)N1CCC(=O)*; PEG6 = NCCOCCOCCOCCOCCOCCOCCC(=O)O
Listed below: Mouse weight (%) values for each entry.

molecule="CC[C@@]1(O)C(=O)OCc2c1cc1n(c2=O)Cc2c-1nc1ccccc1c2CCN(C(=O)CNC(=O)[C@H](Cc1ccccc1)NC(=O)CNC(=O)CNC(=O)CCOCCOCCOCCOCCOCCOCCNC(=O)CCN1C(=O)C=CC1=O)C1CCC1 [MI-6PEG-GGFG-D7] ({Propanoyl(3-maleimido)-PEG6}-GGFG-X1)" assaymetric="Mouse weight (%)" resultvalue=+27%

Next up:
Measured Mouse weight (%) of CCN(CCc1c2c(nc3ccccc13)-c1cc3c(c(=O)n1C2)COC(=O)[C@]3(O)CC)C(=O)CNC(=O)[C@H](CC(N)=O)NC(=O)[C@H](C)NC(=O)CNC(=O)CCOCCOCCOCCOCCOCCOCCNC(=O)CCN1C(=O)C=CC1=O [MI-6PEG-GANG-D2] ({Propanoyl(3-maleimido)-PEG6}-GANG-{NEt(2-(20S-CPT-7-yl)ethyl)}) : +18%

* * *

test: MTD determination in mice (Examples 27, 36, 44)
Format: in vivo
testSettings: female, mouse, in vivo; mice, monitored for 14 d; Table 4
Where a SMILES comes first, the peptide text is derived from it. The star is where a group is joined. NEt(2-(20S-CPT-7-yl)ethyl) = CCN(CCc1c2c(nc3ccccc13)-c1cc3c(c(=O)n1C2)COC(=O)[C@]3(O)CC)*; Belotecan = CC[C@@]1(O)C(=O)OCc2c1cc1n(c2=O)Cc2c-1nc1ccccc1c2CCN(C(C)C)*; X6 = CCCCCN(CCc1c2c(nc3ccccc13)-c1cc3c(c(=O)n1C2)COC(=O)[C@]3(O)CC)*; X8 = CC[C@@]1(O)C(=O)OCc2c1cc1n(c2=O)Cc2c-1nc1ccccc1c2CCN(C1CCCC1)*; X1 = CC[C@@]1(O)C(=O)OCc2c1cc1n(c2=O)Cc2c-1nc1ccccc1c2CCN(C1CCC1)*; X4 = CCCN(CCc1c2c(nc3ccccc13)-c1cc3c(c(=O)n1C2)COC(=O)[C@]3(O)CC)*; X3 = CC[C@@]1(O)C(=O)OCc2c1cc1n(c2=O)Cc2c-1nc1ccccc1c2CCN(C1CC1)*; X7 = CC[C@@]1(O)C(=O)OCc2c1cc1n(c2=O)Cc2c-1nc1ccccc1c2CCN(C)*; Propanoyl(3-maleimido) = O=C1C=CC(=O)N1CCC(=O)*; PEG6 = NCCOCCOCCOCCOCCOCCOCCC(=O)O
Listed below: MTD at 14 d values for each entry.
# value in mg/kg; strip the unit string

These solved cases illustrate the format of a correct answer.
molecule="CCCCCN(CCc1c2c(nc3ccccc13)-c1cc3c(c(=O)n1C2)COC(=O)[C@]3(O)CC)C(=O)CNC(=O)[C@H](CC(N)=O)NC(=O)[C@H](C)NC(=O)[C@H](C)NC(=O)CCOCCOCCOCCOCCOCCOCCNC(=O)CCN1C(=O)C=CC1=O [MI-6PEG-AANG-D4] ({Propanoyl(3-maleimido)-PEG6}-AANG-X6)" unitinfo=mg/kg resultvalue=350
molecule="CC[C@@]1(O)C(=O)OCc2c1cc1n(c2=O)Cc2c-1nc1ccccc1c2CCN(C(=O)CNC(=O)[C@H](Cc1ccccc1)NC(=O)CNC(=O)CNC(=O)CCOCCOCCOCCOCCOCCOCCNC(=O)CCN1C(=O)C=CC1=O)C(C)C [MI-6PEG-GGFG-Belotecan] ({Propanoyl(3-maleimido)-PEG6}-GGFG-Belotecan)" unitinfo=mg/kg resultvalue=180
molecule="CC[C@@]1(O)C(=O)OCc2c1cc1n(c2=O)Cc2c-1nc1ccccc1c2CCN(C(=O)CNC(=O)[C@H](CC(N)=O)NC(=O)[C@H](C)NC(=O)[C@H](C)NC(=O)CCOCCOCCOCCOCCOCCOCCNC(=O)CCN1C(=O)C=CC1=O)C1CC1 [MI-6PEG-AANG-D6] ({Propanoyl(3-maleimido)-PEG6}-AANG-X3)" unitinfo=mg/kg resultvalue=200
molecule="CCN(CCc1c2c(nc3ccccc13)-c1cc3c(c(=O)n1C2)COC(=O)[C@]3(O)CC)C(=O)CNC(=O)[C@H](CCCCN)NC(=O)[C@H](C)NC(=O)[C@H](C)NC(=O)CCOCCOCCOCCOCCOCCOCCNC(=O)CCN1C(=O)C=CC1=O [MI-6PEG-AAKG-D2] ({Propanoyl(3-maleimido)-PEG6}-AAKG-{NEt(2-(20S-CPT-7-yl)ethyl)})" unitinfo=mg/kg resultvalue=350
molecule="CC[C@@]1(O)C(=O)OCc2c1cc1n(c2=O)Cc2c-1nc1ccccc1c2CCN(C(=O)CNC(=O)[C@H](CC(N)=O)NC(=O)[C@H](C)NC(=O)[C@H](C)NC(=O)CCOCCOCCOCCOCCOCCOCCNC(=O)CCN1C(=O)C=CC1=O)C1CCCC1 [MI-6PEG-AANG-D8] ({Propanoyl(3-maleimido)-PEG6}-AANG-X8)" unitinfo=mg/kg resultvalue=400
molecule="CCCN(CCc1c2c(nc3ccccc13)-c1cc3c(c(=O)n1C2)COC(=O)[C@]3(O)CC)C(=O)CNC(=O)[C@H](CC(N)=O)NC(=O)[C@H](C)NC(=O)[C@H](C)NC(=O)CCOCCOCCOCCOCCOCCOCCNC(=O)CCN1C(=O)C=CC1=O [MI-6PEG-AANG-D3] ({Propanoyl(3-maleimido)-PEG6}-AANG-X4)" unitinfo=mg/kg resultvalue=350

Measured MTD at 14 d of CC[C@@]1(O)C(=O)OCc2c1cc1n(c2=O)Cc2c-1nc1ccccc1c2CCN(C)C(=O)CNC(=O)[C@H](Cc1ccccc1)NC(=O)CNC(=O)CNC(=O)CCOCCOCCOCCOCCOCCOCCNC(=O)CCN1C(=O)C=CC1=O [MI-6PEG-GGFG-D1] ({Propanoyl(3-maleimido)-PEG6}-GGFG-X7) : 250

Measured MTD at 14 d of CC[C@@]1(O)C(=O)OCc2c1cc1n(c2=O)Cc2c-1nc1ccccc1c2CCN(C(=O)CNC(=O)[C@H](Cc1ccccc1)NC(=O)CNC(=O)CNC(=O)CCOCCOCCOCCOCCOCCOCCNC(=O)CCN1C(=O)C=CC1=O)C1CCCC1 [MI-6PEG-GGFG-D8] ({Propanoyl(3-maleimido)-PEG6}-GGFG-X8) : 250

Measured MTD at 14 d of CCN(CCc1c2c(nc3ccccc13)-c1cc3c(c(=O)n1C2)COC(=O)[C@]3(O)CC)C(=O)CNC(=O)[C@H](CC(N)=O)NC(=O)[C@H](C)NC(=O)CNC(=O)CCOCCOCCOCCOCCOCCOCCNC(=O)CCN1C(=O)C=CC1=O [MI-6PEG-GANG-D2] ({Propanoyl(3-maleimido)-PEG6}-GANG-{NEt(2-(20S-CPT-7-yl)ethyl)}) : 200

Measured MTD at 14 d of CC[C@@]1(O)C(=O)OCc2c1cc1n(c2=O)Cc2c-1nc1ccccc1c2CCN(C(=O)CNC(=O)[C@H](CC(N)=O)NC(=O)[C@H](C)NC(=O)[C@H](C)NC(=O)CCOCCOCCOCCOCCOCCOCCNC(=O)CCN1C(=O)C=CC1=O)C1CCC1 [MI-6PEG-AANG-D7] ({Propanoyl(3-maleimido)-PEG6}-AANG-X1) : 250
